assay: Plasma concentration in PET study; format: in vivo; settings: human, subject 13031, 1000 mg, 4.77 h prior to scan
Quantity name: concentration at 4.77 h (ng/mL)
Give bare numbers, in ng/mL.

-- ask Which concentration at 4.77 h value is on record for Cc1onc(-c2ccc(F)cc2)c1COc1ccc(C(=O)N2CCS(=O)(=O)CC2)cn1 [basmisanil] ?
-- reply 3350

----------
target: human GABAA α2β3γ2 receptors (Homo sapiens, UniProt P18507+P47869); test: [3H]-flumazenil competition binding, HEK293 membranes; conditions: 1 nM [3H]-flumazenil
Quantity name: Ki (nM)
One number for each entry, in nM.

-- ask Which Ki value is on record for Cc1onc(-c2ccc(F)cc2)c1COc1ccc(C(=O)N2CCS(=O)(=O)CC2)cn1 ?
-- reply 458

Each recorded value in this set is attributed to paper PMC8032764.
